Reference source for all entries: patent US12187702B2

Kindly state IC50 for each of the entries shown.
# target.system: NLRP3 (Homo sapiens, UniProt Q96P20)
# Sequence (Q96P20 whole entry): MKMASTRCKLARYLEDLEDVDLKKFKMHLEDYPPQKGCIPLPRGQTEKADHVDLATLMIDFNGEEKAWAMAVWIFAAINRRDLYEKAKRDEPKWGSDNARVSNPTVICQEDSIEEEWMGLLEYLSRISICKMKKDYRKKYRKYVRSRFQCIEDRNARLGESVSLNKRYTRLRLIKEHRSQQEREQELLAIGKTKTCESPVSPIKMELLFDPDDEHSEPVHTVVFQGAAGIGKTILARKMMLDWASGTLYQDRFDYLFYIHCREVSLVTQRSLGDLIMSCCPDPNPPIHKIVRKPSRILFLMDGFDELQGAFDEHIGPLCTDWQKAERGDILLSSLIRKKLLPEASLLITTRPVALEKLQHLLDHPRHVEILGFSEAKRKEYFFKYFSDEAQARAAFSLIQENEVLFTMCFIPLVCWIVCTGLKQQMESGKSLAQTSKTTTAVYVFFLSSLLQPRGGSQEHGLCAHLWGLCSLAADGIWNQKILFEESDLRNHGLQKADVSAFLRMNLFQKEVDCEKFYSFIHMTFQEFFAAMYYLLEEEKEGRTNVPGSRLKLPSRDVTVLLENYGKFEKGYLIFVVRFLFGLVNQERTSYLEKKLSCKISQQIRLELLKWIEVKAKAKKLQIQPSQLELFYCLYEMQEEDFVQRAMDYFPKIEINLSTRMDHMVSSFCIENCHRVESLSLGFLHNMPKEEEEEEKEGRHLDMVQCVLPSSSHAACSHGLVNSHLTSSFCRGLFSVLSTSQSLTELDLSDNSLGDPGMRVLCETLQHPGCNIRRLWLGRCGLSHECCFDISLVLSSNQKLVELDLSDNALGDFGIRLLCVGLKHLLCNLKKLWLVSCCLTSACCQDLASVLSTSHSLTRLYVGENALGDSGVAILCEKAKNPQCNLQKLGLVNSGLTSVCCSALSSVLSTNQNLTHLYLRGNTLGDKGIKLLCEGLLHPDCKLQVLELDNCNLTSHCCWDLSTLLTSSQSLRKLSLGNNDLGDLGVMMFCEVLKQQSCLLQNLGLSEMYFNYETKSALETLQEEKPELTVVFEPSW
# test.details: Human whole blood IL-1β release assay (LPS + nigericin, AlphaLisa)
# Assay type: cell-based
# Set-up: Plate out 80 μl of whole blood containing 1 μg/ml of LPS; from tissue; host or cells: human whole blood from healthy donors
Where a name gives a salt, the structure may show the parent alone.

> print(dat)
                                   compound  measurement.type  value.reported
1  Cc1cc2c(c(NC(=O)NS(=O)(=O)N(C)C)c1-c1ccnc(OC3CCN(C)CC3)c1)CCC2              IC50        < 500 nM

Report IC50 from NLRP3 (Homo sapiens, UniProt Q96P20) testing of O=C(Nc1c2c(cc3c1CCC3)CCC2)NS(=O)(=O)N1CC2CCC(C1)N2C1CC1 [Example 75, potassium salt] < 5000 nM

====

# test.details: PK, intravenous administration
# Assay type: in vivo, male Sprague Dawley rats
# condition.summary: male, Sprague Dawley, plasma, rat, dose per compound as in Table 3 (0.08-1.86 mg/kg)
# Experimental: Pharmacokinetic parameters were determined in male Sprague Dawley rats (Charles River, UK, 250-350 g; or Vital River Laboratory Animal Technology Co Ltd, Beijing, China, 7-9 weeks old). Animals were individually housed during the study and maintained under a 12 h light/dark cycle. For intravenous administration, compounds were formulated as a solution in water or DMSO:PBS [10:90] in 2 mL/kg dosing volume and administered via tail or jugular vein. […]
Counter-ions that a name gives are not always drawn.
measurement.type: AUC (ng·h/mL)
Answers are plain numbers, in ng·h/mL.

Use the examples below as a reference point.
> print(dat)
                                   compound  unit.name  value.reported
1  CN1CCC2CN(S(=O)(=O)NC(=O)Nc3c4c(cc5c3CCC5)CCC4)CC21 (stereo not shown) [Example 96, potassium salt]    ng·h/mL            5150
2  COc1cc(-c2ccc3c(c2NC(=O)NS(=O)(=O)N2CC4CCN(C)C4C2)CCC3)ccn1 (stereo not shown) [Example 106]    ng·h/mL            5150
3  CN1CC[C@@H](N(C)S(=O)(=O)NC(=O)Nc2c3c(cc4c2CCC4)CCC3)C1 [Example 66, potassium salt]    ng·h/mL            6760
4  CN1CCC(N(C)S(=O)(=O)NC(=O)Nc2c3c(cc4c2CCC4)CCC3)C1 (stereo not shown) [Example 11, potassium salt]    ng·h/mL            5660
5  COc1cc(-c2ccc3c(c2NC(=O)NS(=O)(=O)N(C)[C@@H]2CCN(C)C2)CCC3)ccn1 [Example 110, potassium salt]    ng·h/mL             835

Provide each entry's AUC from the list below.
1. CC(C)N1CCC(N(C)S(=O)(=O)NC(=O)Nc2c3c(cc4c2CCC4)CCC3)C1 (stereo not shown) [Example 36, potassium salt]
2. CN(C)CCN(C)S(=O)(=O)NC(=O)Nc1c2c(cc3c1CCC3)CCC2 [Example 6, potassium salt]
3. CN1CCCCC1CNS(=O)(=O)NC(=O)Nc1c2c(cc3c1CCC3)CCC2 (stereo not shown) [Example 20, potassium salt]
4. CN(C)CCNS(=O)(=O)NC(=O)Nc1c2c(cc3c1CCC3)CCC2 [Example 8]
5. COc1cc(-c2ccc3c(c2NC(=O)NS(=O)(=O)N(C)[C@H]2CCN(C)C2)CCC3)ccn1 [Example 111, potassium salt]

1: 5910; 2: 7270; 3: 2360; 4: 2290; 5: 979

====

Kindly state IC50 for each of the entries shown.
# target.system: NLRP3 (Homo sapiens, UniProt Q96P20)
# test.details: THP-1 cells pyroptosis assay (LPS + nigericin, resazurin read-out)
# Assay type: cell-based
# Design: Seed THP-1 cells (25,000 cells/well) containing 1.0 μg/ml LPS; host or cells: THP-1 cells
# condition.summary: THP-1 cells, 1 μg/ml LPS, 5 μM nigericin; NLRP3 inhibitory activity; read-out: THP IC50
Counter-ions that a name gives are not always drawn.

Use the examples below as a reference point.
> print(dat)
                                   molecule  value.reported
1  CCN(CC)CCN(C)S(=O)(=O)NC(=O)Nc1c2c(cc3c1CCC3)CCC2 [Example 53, potassium salt]          < 5 µM
2  CN(C)CCN(CCCc1ccccc1)S(=O)(=O)NC(=O)Nc1c2c(cc3c1CCC3)CCC2 [Example 58, potassium salt]        < 0.5 µM
3  CN(C)CCN(CCc1ccccc1)S(=O)(=O)NC(=O)Nc1c2c(cc3c1CCC3)CCC2 [Example 13, potassium salt]          < 1 µM

Provide each entry's IC50 from the list below.
1. CCN1[C@@H]2CC[C@H]1C[C@H](NS(=O)(=O)NC(=O)Nc1c3c(cc4c1CCC4)CCC3)C2
2. CN1CCCC(NS(=O)(=O)NC(=O)Nc2c3c(cc4c2CCC4)CCC3)C1 (stereo not shown) [Example 52, potassium salt]

["< 5 µM", "< 0.5 µM"]

Provide each entry's IC50 from the list below.
1. CN(C)CCN(CCN(C)C)S(=O)(=O)NC(=O)Nc1c2c(cc3c1CCC3)CCC2 [Example 51, potassium salt]
2. CN1C[C@H]2CN(S(=O)(=O)NC(=O)Nc3c4c(cc5c3CCC5)CCC4)C[C@H]21 [Example 92, potassium salt]

1: < 10 µM; 2: < 0.5 µM

====

Kindly state IC50 for each of the entries shown.
# target.system: NLRP3 (Homo sapiens)
# test.details: THP-1 cells pyroptosis assay (LPS + nigericin, resazurin read-out)
# Type: cell-based
# Set-up: Seed THP-1 cells (25,000 cells/well) containing 1.0 μg/ml LPS; host or cells: THP-1 cells
# condition.summary: THP-1 cells, 1 μg/ml LPS, 5 μM nigericin; NLRP3 inhibitory activity; read-out: THP IC50
# Procedure: THP-1 cells (ATCC #TIB-202) were grown in RPMI containing L-glutamine (Gibco #11835) supplemented with 1 mM sodium pyruvate (Sigma #S8636) and penicillin (100 units/ml)/streptomycin (0.1 mg/ml) (Sigma #P4333) in 10% Fetal Bovine Serum (FBS) (Sigma #F0804). […] The cells were then counted and viability (>90%) checked by Trypan blue (Sigma #T8154). […] The following method step-by-step assay was followed for compound screening. • 1. […] Plates were read in an Envision reader at Ex 560 nm and Em 590 nm • 9. […]
Where a name gives a salt, the structure may show the parent alone.

> print(dat)
                                   compound         target.system  value.reported
1  CC(C)N1[C@@H]2CC[C@H]1C[C@@H](NS(=O)(=O)NC(=O)Nc1c3c(cc4c1CCC4)CCC3)C2  NLRP3 (Homo sapiens)       < 5000 nM
2  CC(CN(C)C)NS(=O)(=O)NC(=O)Nc1c2c(cc3c1CCC3)CCC2 (stereo not drawn) [Example 16, potassium salt]  NLRP3 (Homo sapiens)       < 5000 nM
3  CN1CCC2CN(S(=O)(=O)NC(=O)Nc3c4c(cc5c3CCC5)CCC4)CC21 (stereo not drawn) [Example 96, potassium salt]  NLRP3 (Homo sapiens)        < 500 nM
4  CN1CC2CCC(C1)N2S(=O)(=O)NC(=O)Nc1c2c(cc3c1CCC3)CCC2 [Example 37, potassium salt]  NLRP3 (Homo sapiens)        < 500 nM
5  CN(C)[C@@H]1C[C@H]2CC[C@@H](C1)N2S(=O)(=O)NC(=O)Nc1c2c(cc3c1CCC3)CCC2  NLRP3 (Homo sapiens)      < 10000 nM
6  CN1CCC2CCN(S(=O)(=O)NC(=O)Nc3c4c(cc5c3CCC5)CCC4)CC21 (stereo not drawn)  NLRP3 (Homo sapiens)       < 5000 nM

Provide each entry's IC50 from the list below.
1. CN1CC[C@H](N(C)S(=O)(=O)NC(=O)Nc2c3c(cc4c2CCC4)CCC3)C1 [Example 76, potassium salt]
2. O=C(Nc1c2c(cc3c1CCC3)CCC2)NS(=O)(=O)NCCCCO [Example 54, potassium salt]
3. CCN1CC2CN(S(=O)(=O)NC(=O)Nc3c4c(cc5c3CCC5)CCC4)CC21 (stereo not drawn)

1. < 500 nM
2. < 5000 nM
3. < 500 nM

Provide each entry's IC50 from the list below.
1. CNCCN(C)S(=O)(=O)NC(=O)Nc1c2c(cc3c1CCC3)CCC2 [Example 32, potassium salt]
2. CC(CN(C)C)N(C)S(=O)(=O)NC(=O)Nc1c2c(cc3c1CCC3)CCC2 (stereo not drawn) [Example 27, potassium salt]
3. O=C(Nc1c2c(cc3c1CCC3)CCC2)NS(=O)(=O)N1CCC(N2CCCC2)C1 (stereo not drawn) [Example 72, potassium salt]
4. CN1CCC(NS(=O)(=O)NC(=O)Nc2c3c(cc4c2CCC4)CCC3)C1 (stereo not drawn) [Example 44, potassium salt]
5. Cn1ccc(NS(=O)(=O)NC(=O)Nc2c3c(cc4c2CCC4)CCC3)n1 [Example 55, potassium salt]

< 5000 nM
< 1000 nM
< 500 nM
< 1000 nM
< 1000 nM

Supply IC50 value. Item: O=C(Nc1c2c(cc3c1CCC3)CCC2)NS(=O)(=O)N1CCC(N2CCC2)C1 (stereo not drawn) [Example 73, potassium salt] < 1000 nM
